- system: UniProtKB P17948
- Sequence (P17948 whole entry, the tested form may be a part): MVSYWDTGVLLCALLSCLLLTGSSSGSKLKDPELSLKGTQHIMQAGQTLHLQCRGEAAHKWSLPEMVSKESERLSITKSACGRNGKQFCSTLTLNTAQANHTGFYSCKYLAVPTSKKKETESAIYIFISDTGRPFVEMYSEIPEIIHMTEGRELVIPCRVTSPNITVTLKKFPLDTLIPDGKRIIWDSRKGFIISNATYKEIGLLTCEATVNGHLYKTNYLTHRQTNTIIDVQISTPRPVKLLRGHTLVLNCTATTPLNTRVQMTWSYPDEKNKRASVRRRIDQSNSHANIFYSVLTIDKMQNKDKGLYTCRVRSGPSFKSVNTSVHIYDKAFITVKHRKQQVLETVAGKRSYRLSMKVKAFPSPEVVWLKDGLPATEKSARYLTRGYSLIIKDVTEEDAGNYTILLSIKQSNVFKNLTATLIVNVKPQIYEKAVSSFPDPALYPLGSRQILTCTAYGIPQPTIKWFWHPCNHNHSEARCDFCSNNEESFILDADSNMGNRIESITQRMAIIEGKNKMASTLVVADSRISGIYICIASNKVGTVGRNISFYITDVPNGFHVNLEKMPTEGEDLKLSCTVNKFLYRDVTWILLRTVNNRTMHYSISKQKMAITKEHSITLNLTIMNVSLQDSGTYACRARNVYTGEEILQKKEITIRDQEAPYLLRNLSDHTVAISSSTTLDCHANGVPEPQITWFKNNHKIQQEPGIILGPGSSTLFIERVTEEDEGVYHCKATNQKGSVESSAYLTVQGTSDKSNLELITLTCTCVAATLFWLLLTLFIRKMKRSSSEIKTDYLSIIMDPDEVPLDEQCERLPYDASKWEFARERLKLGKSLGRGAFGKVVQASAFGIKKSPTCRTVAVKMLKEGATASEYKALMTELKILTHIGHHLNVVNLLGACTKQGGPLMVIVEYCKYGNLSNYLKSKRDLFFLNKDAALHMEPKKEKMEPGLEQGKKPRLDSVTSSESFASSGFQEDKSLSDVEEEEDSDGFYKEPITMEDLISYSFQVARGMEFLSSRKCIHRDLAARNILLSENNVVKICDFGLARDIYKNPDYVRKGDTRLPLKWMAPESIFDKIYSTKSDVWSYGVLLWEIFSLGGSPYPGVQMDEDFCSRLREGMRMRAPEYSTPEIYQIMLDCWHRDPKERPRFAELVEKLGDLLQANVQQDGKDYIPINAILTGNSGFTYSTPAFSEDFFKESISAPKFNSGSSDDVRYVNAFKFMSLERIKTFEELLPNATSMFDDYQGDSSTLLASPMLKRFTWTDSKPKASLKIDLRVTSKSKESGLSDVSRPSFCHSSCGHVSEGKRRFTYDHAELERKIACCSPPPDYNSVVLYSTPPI
- assay remarks: Inhibition of recombinant human N-terminal GST-tagged factor 10a cleavage site-fused Flt1 (K784 to I1338 residues) expressed in baculovirus infected insect Sf9 cells using poly-EY as substrate after 120 mins in presence of gamma33P-ATP by liquid scintillation spectrometry
pIC50: −log10 of the molar value.
measured property: pIC50

Consider the reported pIC50 for these compounds:
>>> print(df.to_string())
                                   compound  measured_value
0  COc1cc2c(Nc3ccc(Cl)c(Cl)c3F)ncnc2cc1OC[C@@H]1C[C@@H]2CN(C)C[C@@H]2C1    6.00 to 7.30
1  COc1cc2c(Nc3ccc(Cl)c(Cl)c3)ncnc2cc1OC[C@H]1CN2CCC[C@@H]2CO1    6.00 to 7.30
2  COc1cc2c(Nc3cc(Cl)c(Br)cc3F)ncnc2cc1OC[C@H]1CN2CCOC[C@H]2CO1    6.00 to 7.30
3  COc1cc2c(Nc3ccc(F)c(Cl)c3F)ncnc2cc1OC[C@@H]1CN2CCOC[C@H]2CO1    6.00 to 7.30
4  COc1cc2c(Nc3cc(Cl)c(Br)cc3F)ncnc2cc1OC[C@@H]1CN2CCC[C@H]2CO1    6.00 to 7.30
5  COc1cc2c(Nc3ccc(Cl)c(Cl)c3)ncnc2cc1OC[C@H]1CN2CCC[C@H]2CO1    6.00 to 7.30

Query: I would be grateful if you could share the reported pIC50 for `COc1cc2c(Nc3ccc(Br)c(Cl)c3F)ncnc2cc1OC[C@@H]1CN2CCOC[C@H]2CO1` .
Response: > 7.30

Query: `COc1cc2c(Nc3ccc(Br)c(Cl)c3Cl)ncnc2cc1OC[C@@H]1CN2CCC[C@H]2CO1` ?
Response: 6.00 to 7.30

Query: Entry to check: `COc1cc2c(Nc3ccc(Br)c(Cl)c3F)ncnc2cc1OC[C@@H]1CN2CCC[C@H]2CO1`
Response: > 7.30

Query: Ok, now COc1cc2c(Nc3ccc(Cl)c(Cl)c3)ncnc2cc1OCC1CN2CSC[C@H]2CO1 (some centres not stated)
Response: 6.00 to 7.30

Query: Repeat for the following compound: `COc1cc2c(Nc3cc(Cl)c(Cl)cc3F)ncnc2cc1OC[C@@H]1CN2CCOC[C@H]2CO1`
Response: 6.00 to 7.30

Query: // same read-out, input: `COc1cc2c(Nc3ccc(Br)c(Cl)c3F)ncnc2cc1OC[C@@H]1CN2CCC[C@H]2C(=O)N1`
Response: 6.00 to 7.30

All figures here come from ChEMBL document CHEMBL3882729.
